Target: human GPR119 (Homo sapiens, UniProt Q8TDV5)
Construct: expression vector for human GPR119 cDNA (Acc. No. NP_848566)
Assay: AlphaScreen cAMP assay in MIN6 cells stably transfected with human GPR119
Details: Min-6/hGPR119 cells, AlphaScreen cAMP Assay Kit, 45 minutes incubation at room temperature
QUANTITY KIND: EC50 (nM)
Provide only the numeric value, understood in nM.

Recorded results for 5 compounds are shown here.
[
  {
    "COMPOUND": "O=C(c1ccc(-c2cnco2)cc1)N(C1CC1)C1CCN(c2ccc(Br)cn2)CC1 [Example 32]",
    "TARGET DESC": "human GPR119 (Homo sapiens, UniProt Q8TDV5)",
    "EC50 / nM": 38
  },
  {
    "COMPOUND": "Cc1ncoc1-c1ccc(C(=O)N(C2CC2)C2CCN(c3ncc(Cl)cn3)CC2)cc1 [Example 43]",
    "TARGET DESC": "human GPR119 (Homo sapiens, UniProt Q8TDV5)",
    "EC50 / nM": 46
  },
  {
    "COMPOUND": "CCc1cnc(N2CCC(N(C(=O)c3ccc(-c4cnco4)cc3)C3CC3)C(C)C2)nc1 (centres unmarked) [Example 53]",
    "TARGET DESC": "human GPR119 (Homo sapiens, UniProt Q8TDV5)",
    "EC50 / nM": 99
  },
  {
    "COMPOUND": "O=C(c1ccc(-c2cnco2)cc1)N(C1CC1)C1CCN(c2cnc(I)cn2)CC1 [Example 83]",
    "TARGET DESC": "human GPR119 (Homo sapiens, UniProt Q8TDV5)",
    "EC50 / nM": 10
  },
  {
    "COMPOUND": "O=C(c1ccc(-c2cnco2)cc1)N(C1CC1)C1CCN(c2cnccn2)CC1 [Example 85]",
    "TARGET DESC": "human GPR119 (Homo sapiens, UniProt Q8TDV5)",
    "EC50 / nM": 449
  }
]

## Input Please look up its EC50: N#Cc1cnc(N2CCC(N(C(=O)c3ccc(-c4cnco4)cc3)C3CC3)CC2)cn1 [Example 86]
## Output 139

## Input Please look up its EC50: C=CCc1noc(N2CCC(N(C(=O)c3ccc(-c4cnco4)cc3)C3CC3)CC2)n1 [Example 13]
## Output 26

## Input Please look up its EC50: CCCOc1cnc(N2CCC(N(C(=O)c3ccc(-c4cnco4)cc3)C3CC3)CC2)nc1 [Example 75]
## Output 87

* * *

Molecular target: human GPR119 (Homo sapiens)
Construct: expression vector for human GPR119 cDNA (Acc. No. NP_848566)
Sequence (Q8TDV5 1-335): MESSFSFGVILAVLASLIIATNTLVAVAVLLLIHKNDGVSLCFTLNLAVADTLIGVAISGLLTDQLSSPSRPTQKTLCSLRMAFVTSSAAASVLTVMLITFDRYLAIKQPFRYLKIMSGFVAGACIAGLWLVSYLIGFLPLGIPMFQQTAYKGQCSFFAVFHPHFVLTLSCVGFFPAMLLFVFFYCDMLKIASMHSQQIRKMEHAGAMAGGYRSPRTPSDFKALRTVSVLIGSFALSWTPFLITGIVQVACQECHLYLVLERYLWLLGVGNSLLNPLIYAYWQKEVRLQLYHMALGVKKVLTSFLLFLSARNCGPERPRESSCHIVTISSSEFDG
Assay: AlphaScreen cAMP assay in MIN6 cells stably transfected with human GPR119
Details: Min-6/hGPR119 cells, AlphaScreen cAMP Assay Kit, 45 minutes incubation at room temperature
QUANTITY KIND: pEC50
# reply with the number alone; pEC50 is -log10 of concentration in mol/L

Recorded results for 8 compounds are shown here.
[
  {
    "ITEM SMILES": "O=C(c1ccc(-c2cnco2)cc1)N(C1CC1)C1CCN(c2ncc(Br)cn2)CC1",
    "NUMERIC VALUE": 7.77
  },
  {
    "ITEM SMILES": "COCc1noc(N2CCC(N(C(=O)c3ccc(-c4cnco4)cc3)C3CC3)CC2)n1",
    "NUMERIC VALUE": 6.80
  },
  {
    "ITEM SMILES": "CCc1noc(N2CCC(N(C(=O)c3ccc(-c4ccc(C(N)=O)cc4)cc3)C3CC3)CC2)n1",
    "NUMERIC VALUE": 6.69
  },
  {
    "ITEM SMILES": "O=C(c1ccc(-c2cnco2)cc1)N(C1CC1)C1CCN(c2nnc(-c3ccccc3)s2)CC1",
    "NUMERIC VALUE": 7.12
  },
  {
    "ITEM SMILES": "Cc1cnc(N2CCC(N(C(=O)c3ccc(-c4cnco4)cc3)C3CC3)CC2)cn1",
    "NUMERIC VALUE": 7.28
  },
  {
    "ITEM SMILES": "Cc1cnc(N2CCC(N(C(=O)c3ccc(-c4cnco4)c(F)c3)C3CC3)CC2)cn1",
    "NUMERIC VALUE": 6.68
  },
  {
    "ITEM SMILES": "CCCc1cnc(N2CCC(N(C(=O)c3ccc(-c4cnco4)cc3)C3CC3)CC2)nc1",
    "NUMERIC VALUE": 7.36
  },
  {
    "ITEM SMILES": "C=CCCc1noc(N2CCC(N(C(=O)c3ccc(-c4cnco4)cc3)C3CC3)CC2)n1",
    "NUMERIC VALUE": 7.66
  }
]

Let us examine a further case.
## Input Please look up its pEC50: O=C(c1ccc(-c2cnco2)cc1)N(C1CC1)C1CCN(c2ccc(C(F)(F)F)cn2)CC1
## Output 7.42

* * *

Target: human GPR119 (Homo sapiens, UniProt Q8TDV5)
Construct: expression vector for human GPR119 cDNA (Acc. No. NP_848566)
Sequence (Q8TDV5 1-335): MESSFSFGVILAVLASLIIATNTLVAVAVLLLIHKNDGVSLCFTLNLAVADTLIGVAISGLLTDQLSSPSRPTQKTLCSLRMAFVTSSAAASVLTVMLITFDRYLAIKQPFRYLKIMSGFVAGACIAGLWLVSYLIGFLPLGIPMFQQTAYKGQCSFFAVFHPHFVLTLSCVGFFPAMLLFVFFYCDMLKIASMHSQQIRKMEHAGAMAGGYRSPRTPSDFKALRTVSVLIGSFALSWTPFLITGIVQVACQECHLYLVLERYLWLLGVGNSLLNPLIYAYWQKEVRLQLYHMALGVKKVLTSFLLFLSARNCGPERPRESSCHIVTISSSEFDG
Assay: AlphaScreen cAMP assay in MIN6 cells stably transfected with human GPR119
Conditions: Min-6/hGPR119 cells, AlphaScreen cAMP Assay Kit, 45 minutes incubation at room temperature
pEC50: −log10 of the molar value.
# cutoff 7 applies to pEC50; >= gives criterion met, < gives criterion not met

[
  {
    "ITEM SMILES": "O=C(c1ccc(-c2cnco2)cc1)N(C1CC1)C1CCN(c2nc3ccccc3o2)CC1",
    "TARGET DESC": "human GPR119 (Homo sapiens, UniProt Q8TDV5)",
    "QUALITATIVE LABEL": "criterion met"
  },
  {
    "ITEM SMILES": "CC(C)(O)c1noc(N2CCC(N(C(=O)c3ccc(-c4cnco4)cc3)C3CC3)CC2)n1",
    "TARGET DESC": "human GPR119 (Homo sapiens, UniProt Q8TDV5)",
    "QUALITATIVE LABEL": "criterion not met"
  },
  {
    "ITEM SMILES": "O=C(c1ccc(-c2cnco2)cc1)N(C1CC1)C1CCN(c2nc(CCC(F)(F)F)no2)CC1",
    "TARGET DESC": "human GPR119 (Homo sapiens, UniProt Q8TDV5)",
    "QUALITATIVE LABEL": "criterion met"
  },
  {
    "ITEM SMILES": "CCOc1cnc(N2CCC(N(C(=O)c3ccc(-c4cnco4)cc3)C3CC3)CC2)nc1",
    "TARGET DESC": "human GPR119 (Homo sapiens, UniProt Q8TDV5)",
    "QUALITATIVE LABEL": "criterion not met"
  },
  {
    "ITEM SMILES": "O=C(c1ccc(-c2cnco2)cc1)N(C1CC1)C1CCN(c2ncc(-c3ccc(Cl)cc3)cn2)CC1",
    "TARGET DESC": "human GPR119 (Homo sapiens, UniProt Q8TDV5)",
    "QUALITATIVE LABEL": "criterion not met"
  }
]

## Input In plain terms: is recorded pEC50 at least 7 for COc1cnc(N2CCC(N(C(=O)c3ccc(-c4cnco4)cc3)C3CC3)CC2)nc1 ?
## Output criterion met

* * *

List of pEC50 values.
Molecular target: mutant form of the human GPR119 receptor (Homo sapiens, UniProt Q8TDV5, S329A/T327A)
Construct: T327 & S329 changed to alanines
Test: LANCE cAMP-384 assay in HEK293 cells stably expressing a mutant form of the human GPR119 receptor
Settings: HEK293 cells stably expressing mutant human GPR119, LANCE cAMP-384 Kit, 20 min at 37° C.
# reply with the number alone; pEC50 is -log10 of concentration in mol/L

[
  {
    "COMPOUND": "CCc1cnc(N2CCC(N(C(=O)c3ccc(-n4cncn4)c(F)c3)C3CC3)CC2)nc1",
    "NUMERIC VALUE": 7.28
  }
]

## Input Request - read-out pEC50 | tested on mutant form of the human GPR119 receptor (Homo sapiens, UniProt Q8TDV5, S329A/T327A) | compound O=C(c1ccc(-n2cncn2)c(F)c1)N(C1CC1)C1CCN(c2ncc(Cl)cn2)CC1
## Output 7.33

## Input Request - read-out pEC50 | tested on mutant form of the human GPR119 receptor (Homo sapiens, UniProt Q8TDV5, S329A/T327A) | compound Cc1ncnn1-c1ccc(C(=O)N(C2CC2)C2CCN(c3ncc(C(F)(F)F)cc3F)CC2)cc1F
## Output 6.23
